Collected pKd values appear next to each entry.
Target: T1, hIL-18Rα ECD-Fc fusion protein (human, UniProt Q13478 22-329)
T1 construct: extracellular domain; captured on Protein A sensor
T1 sequence (looked up): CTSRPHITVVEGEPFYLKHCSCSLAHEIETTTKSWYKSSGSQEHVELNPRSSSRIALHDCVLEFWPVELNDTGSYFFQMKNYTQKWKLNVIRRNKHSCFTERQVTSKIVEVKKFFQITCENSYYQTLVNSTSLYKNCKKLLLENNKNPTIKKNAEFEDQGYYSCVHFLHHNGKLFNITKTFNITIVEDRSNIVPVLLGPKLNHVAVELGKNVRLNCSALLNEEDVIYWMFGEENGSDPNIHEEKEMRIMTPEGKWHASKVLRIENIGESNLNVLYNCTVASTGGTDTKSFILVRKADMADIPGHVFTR
Experiment: BLI (Octet RED96), hIL-18Rα ECD-Fc on Protein A sensor
pKd here is simply -log10 of the concentration when that concentration is written in mol/L.

Example results:
>>> recorded_value("IL-18 variant polypeptide MM5 (ligand, soluble, E. coli-made) YFGKLGSKLSVIRNLNDQVLFIDQGNRPLFEDMTDSDCRDNAPRTIFIISMYKLSTERGMAVTISVKCEKISTLSCENKIISFKEMNPPDGIKDTKSDIIFFQSSVPGHDNKMQFESSSYEGYFLACEKERDLFKLILKKEDELGDRSIMFTVQNED")
6.98
>>> recorded_value("IL-18 variant polypeptide M39 (ligand) YFPKLRSKLSVIRNLNDQVLFIDQGNRPLFEDMTDSDCRDNAPRTIFIISMYKWSPGRGMAVTISVKCEKISTLSCENKIISFKEMNPPDVIKDTKSDIIFFQLSVPGHDNKMQFESSSYEGYFLACEKERDLFKLILKKEDELGDRSIMFTVQNED")
7.69
>>> recorded_value("IL-18 variant polypeptide M33 (ligand) YFEKLHSKLSVIRNLNDQVLFIDQGNRPLFEDMTDSDCRDNAPRTIFIISMYKRSTHRGMAVTISVKCEKISTLSCENKIISFKEMNPPDNIKDTKSDIIFFQRSVPGHDNKMQFESSSYEGYFLACEKERDLFKLILKKEDELGDRSIMFTVQNED")
6.23
>>> recorded_value("IL-18 variant polypeptide M30 (ligand) YFPKLLSKLSVIRNLNDQVLFIDQGNRPLFEDMTDSDCRDNAPRTIFIISMYKHSTVRGMAVTISVKCEKISTLSCENKIISFKEMNPPDSIKDTKSDIIFFQRSVPGHDNKMQFESSSYEGYFLACEKERDLFKLILKKEDELGDRSIMFTVQNED")
7.52
>>> recorded_value("IL-18 variant polypeptide WM6 (ligand, soluble, E. coli-made) YFDKLKSKLSVIRNLNDQVLFIDQGNRPLFEDMTDSDCRDNAPRTIFIISMYKDSQPRGMAVTISVKCEKISTLSCENKIISFKEMNPPDSIKDTKSDIIFFQRSVPGHDNKMQFESSSYEGYFLACEKERDLFKLILKKEDELGDRSIMFTVQNED")
8.00

I have this binder here, IL-18 variant polypeptide M16 (ligand) YFPKLRSKLSVIRNLNDQVLFIDQGNRPLFEDMTDSDCRDNAPRTIFIISMYKSSRNRGMAVTISVKCEKISTLSCENKIISFKEMNPPDGIKDTKSDIIFFQSSVPGHDNKMQFESSSYEGYFLACEKERDLFKLILKKEDELGDRSIMFTVQNED , and I need its recorded pKd. 7.37

Also check IL-18 variant polypeptide M15 (ligand) YFPKLRSKLSVIRNLNDQVLFIDQGNRPLFEDMTDSDCRDNAPRTIFIISMYKSSYTRGMAVTISVKCEKISTLSCENKIISFKEMNPPDGIKDTKSDIIFFQRSVPGHDNKMQFESSSYEGYFLACEKERDLFKLILKKEDELGDRSIMFTVQNED 7.44
